TARGET ENTITY: Thymidylate synthase (Mus musculus)
Sequence (P07607 whole entry): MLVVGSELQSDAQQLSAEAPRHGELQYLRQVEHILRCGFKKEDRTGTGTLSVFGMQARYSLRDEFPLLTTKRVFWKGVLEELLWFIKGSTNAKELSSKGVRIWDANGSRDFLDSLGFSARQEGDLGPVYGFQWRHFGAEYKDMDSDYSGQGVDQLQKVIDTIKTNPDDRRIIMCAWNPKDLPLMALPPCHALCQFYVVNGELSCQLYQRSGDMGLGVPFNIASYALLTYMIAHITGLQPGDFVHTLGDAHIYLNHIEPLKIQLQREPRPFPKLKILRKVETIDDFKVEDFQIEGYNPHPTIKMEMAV
PROTOCOL NOTES: Binding affinity against L1210 Thymidylate synthase.
REPORTED PROPERTY: pKi
Convention used: pKi is expressed as -log10 of the molar concentration.

Problem: Recorded pKi for C#CCN(Cc1cc2c(O)nc(C)nc2cc1C)c1ccc(C(=O)N[C@@H](CCC(=O)N[C@H](CCCC(=O)O)C(=O)O)C(=O)O)c(F)c1 with Thymidylate synthase (Mus musculus), please?
Solution: 9.92
